molecular target: S. pyogenes SKKanGAS, kanamycin survival, BacTiterGlo, 6 h; assay: S. pyogenes SKKanGAS kanamycin growth inhibitors – SKKanGAS strain, luminescence, dose confirmation, streptokinase promoter inhibitor project, dose response (AID 1902);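 note: lower survival reflects blocked streptokinase promoter driving kanamycin resistance gene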
The source made the active and inactive calls.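 Rule for the calls: active = EC50 no more than a set limit of log units above the highest dose; inactive = the rest.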
Select the correct class. Options are active, inactive and nothing else.

// return assay outcome for `C/C(=N\NC(=O)c1cc2ccccc2cc1O)c1ccc2c(c1)OCO2`
active

// return assay outcome for `O=[N+]([O-])c1cccnc1N1CCC(c2cc(-c3ccc(Cl)cc3Cl)n[nH]2)CC1`
active

// return assay outcome for `O=C(NC12CC3CC(CC(C3)C1)C2)c1ccc(-c2ccc(Br)cc2)o1`
active

// return assay outcome for `c1ccc(-c2nc(N3CCCCCC3)nc(-n3ccnc3)n2)cc1`
active

// return assay outcome for `Cc1ccc(Nc2c(-c3ccccn3)nc3cccc(C)n23)cc1`
active

// return assay outcome for `CC[C@H]1OC(=O)[C@H](C)[C@@H](O[C@H]2C[C@@](C)(OC)[C@@H](O)[C@H](C)O2)[C@H](C)[C@@H](O[C@@H]2O[C@H](C)C[C@H](N(C)C)[C@H]2O)[C@](C)(O)C[C@@H](C)CN(C)[C@H](C)[C@@H](O)[C@]1(C)O`
active

// return assay outcome for `O=C1[C@H]2C(c3ccccc3)=NN(c3ccccc3)[C@H]2C(=O)N1c1ccccc1`
active

// return assay outcome for `CC(=O)N1CCN(c2ccccc2NC(=O)c2cccs2)CC1`
inactive

// return assay outcome for `CCOc1ccc2nc(NC(=O)c3ccccn3)sc2c1`
active

// return assay outcome for Cc1ccc2nc(N3C(=O)C(O)=C(C(=O)c4ccco4)C3c3cccs3)sc2c1 (configuration not stated)
active

// return assay outcome for `Oc1cccc(/C=N/N(Cc2ccccc2)c2ccccc2)c1`
active

// return assay outcome for `CCCOc1ccc(Cc2c(Cl)nc(SC)nc2N(C)C)cc1`
active

// return assay outcome for `O=C(Nc1nc(-c2ccccn2)cs1)C12CC3CC(CC(O)(C3)C1)C2`
active

// return assay outcome for `O=C(CSc1nnc(CNC(=O)c2c(F)cccc2F)o1)NCc1ccccc1`
inactive

// return assay outcome for `O=C(C1CCCCC1)N1CCC(c2nc3c(nnn3Cc3c(F)cccc3Cl)c(=O)[nH]2)CC1`
active

// return assay outcome for N#CCC(=O)Nc1ccc(C(=O)OC(C(=O)Nc2cc(C(F)(F)F)ccc2Cl)c2ccccc2)cc1 (configuration not stated)
active

// return assay outcome for `Cc1ccc2sc(NNC(=O)c3cc(=O)c4ccccc4o3)nc2c1C`
active

---

biological target: S. pyogenes SKKanGAS, kanamycin survival, BacTiterGlo, 6 h; experiment: S. pyogenes SKKanGAS kanamycin growth inhibitors – SKKanGAS strain, luminescence, dose confirmation, streptokinase promoter inhibitor project, dose response (AID 1902);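 note: lower survival reflects blocked streptokinase promoter driving kanamycin resistance gene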
measured_property: EC50

Fill in the blank: the reported EC50 of `COc1cccc(-c2cc(C(F)(F)F)nc(N3CCCCC3)n2)c1` is ____.
4.86 µM

Fill in the blank: the reported EC50 of `O=C(Nc1ccc(F)c(Cl)c1)Nc1csc2ccccc12` is ____.
2.79 µM

Fill in the blank: the reported EC50 of `Cn1cccc1CC(=O)NNC(=S)NC(=O)c1ccccc1Br` is ____.
1.64 µM

Fill in the blank: the reported EC50 of `CCOC(=O)c1csc(N/N=C2\CCCc3ccccc32)n1` is ____.
11 µM

Fill in the blank: the reported EC50 of `Cc1ccccc1-c1cc(C(=O)Nc2sc(C(=O)OC(C)C)c(C)c2C#N)c2ccccc2n1` is ____.
5.49 µM

Fill in the blank: the reported EC50 of `CCCc1nnc(NC(=O)c2c(O)c3cccc4c3n(c2=O)CCC4)s1` is ____.
6.91 µM

Fill in the blank: the reported EC50 of NC1CCN(c2c(F)cc3c(=O)c(C(=O)O)cn(C4CC4)c3c2Cl)C1 (configuration not stated) is ____.
0.064 µM
